Data provenance is PubChem BioAssay (NCI).

Tested on: HOP-62 NSCLC
Assay: NCI tumour cell line growth inhibition, 384-well format; in the data active = GI50 below about 0.43 µM; inactive = the rest
Pick one: true (1) = active, false (0) = inactive

Given C=CC(=O)N1CC[C@@H](Oc2nc(Nc3ccc(N4CCC(N5CCN(C)CC5)CC4)cc3)c(C(N)=O)nc2CC)C1 , state the outcome it received in this test.
false (0)

Which result was noted for this compound in the test: COc1c(C)cnc(Cn2cnc3c(Cl)nc(N)nc32)c1C
true (1)

What did this assay record as the result for CNCc1ccc(C)c(NC(=O)c2ccc(Nc3nc(-c4ccccc4)c4ccccc4n3)cc2)c1 ?
false (0)

Outcome logged for CCS(=O)(=O)Nc1ccc(Oc2ccc(F)cc2F)c(-c2cn(C)c(=O)c3[nH]ccc23)c1 in this assay:
true (1)
